B1: STEAP1 (parent)
chain: LWKMKPRRNLEEDDYLHKDTGETS

# Variants of: B1
# Assay: protein stability index of a GFP-peptide fusion (GPS, HEK-293T) (PSI 1-6); higher = more stable;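 further: lentivirally expressed fusions sorted by FACS into six bins by GFP to DsRed ratio, PSI derived from sequencing read proportions per bin multiplied by bin number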
# Particulars: c terminus: a fixed tail appended
A collection of variants and their measured protein stability index
Reported endpoint: protein stability index

Item sequence: LWKMKPRRNLEEHDYLHKDTGETS [D13H]
Reported endpoint: protein stability index
Test value: 3.88
--
Item sequence: LWKMKPRRNLEEDDYLHKDNGETS [T20N]
Reported endpoint: protein stability index
Test value: 4.46
--
Item sequence: LWKMKPRRNLEIDDYLHKDTGETS [E12I]
Reported endpoint: protein stability index
Test value: 3.66
--
Item sequence: LWLMKPRRNLEEDDYLHKDTGETS [K3L]
Reported endpoint: protein stability index
Test value: 3.81
--
Item sequence: LWKMKPRRNLEEDFYLHKDTGETS [D14F]
Reported endpoint: protein stability index
Test value: 3.74
--
Item sequence: LWKMKPRRNLEFDDYLHKDTGETS [E12F]
Reported endpoint: protein stability index
Test value: 3.51
--
Item sequence: IWKMKPRRNLEEDDYLHKDTGETS [L1I]
Reported endpoint: protein stability index
Test value: 3.97
--
Item sequence: LWNMKPRRNLEEDDYLHKDTGETS [K3N]
Reported endpoint: protein stability index
Test value: 4.8
--
Item sequence: LWKMKPRRNLEEVDYLHKDTGETS [D13V]
Reported endpoint: protein stability index
Test value: 3.87
--
Item sequence: LWKMKPRRNLEEDDFLHKDTGETS [Y15F]
Reported endpoint: protein stability index
Test value: 4.14
--
Item sequence: LWKMKPRRNLEEDDYLHKDTGKTS [E22K]
Reported endpoint: protein stability index
Test value: 3.83
--
Item sequence: LWKMKPRRNLEEDDYLHKDGGETS [T20G]
Reported endpoint: protein stability index
Test value: 4.58
--
Item sequence: LWKMKPRRNLEEQDYLHKDTGETS [D13Q]
Reported endpoint: protein stability index
Test value: 4.63
--
Item sequence: LWKMKPRRNLEEDDWLHKDTGETS [Y15W]
Reported endpoint: protein stability index
Test value: 4.26
--
Item sequence: LWKMKPRRNLEEDDYLTKDTGETS [H17T]
Reported endpoint: protein stability index
Test value: 4.82
--
Item sequence: LWKMKPRRNLEEPDYLHKDTGETS [D13P]
Reported endpoint: protein stability index
Test value: 4.45
--
Item sequence: LWKMKPRSNLEEDDYLHKDTGETS [R8S]
Reported endpoint: protein stability index
Test value: 4.43
--
Item sequence: LWKMKPRRNLESDDYLHKDTGETS [E12S]
Reported endpoint: protein stability index
Test value: 4.45
--
Item sequence: LWKMKPRRNLEEDDYLHKDRGETS [T20R]
Reported endpoint: protein stability index
Test value: 4.44
--
Item sequence: LWKRKPRRNLEEDDYLHKDTGETS [M4R]
Reported endpoint: protein stability index
Test value: 4.47
--
Item sequence: LWKMKPRRNLEEDDQLHKDTGETS [Y15Q]
Reported endpoint: protein stability index
Test value: 4.92
--
Item sequence: LWKMKPRRNLEEDDYLYKDTGETS [H17Y]
Reported endpoint: protein stability index
Test value: 4.38
--
Item sequence: LWKMKPRRNLEEDDYLHFDTGETS [K18F]
Reported endpoint: protein stability index
Test value: 3.38
--
Item sequence: LWKMKPDRNLEEDDYLHKDTGETS [R7D]
Reported endpoint: protein stability index
Test value: 5.25
--
Item sequence: LWKMKPRRNLEEDDYLHKDIGETS [T20I]
Reported endpoint: protein stability index
Test value: 4.12
--
Item sequence: LWKMKPRRQLEEDDYLHKDTGETS [N9Q]
Reported endpoint: protein stability index
Test value: 4.41
--
Item sequence: LWKMKPRRNLEEDQYLHKDTGETS [D14Q]
Reported endpoint: protein stability index
Test value: 4.32
--
Item sequence: LWKMKPRRNLEEDDYLHKDTRETS [G21R]
Reported endpoint: protein stability index
Test value: 3.89
--
Item sequence: LWKGKPRRNLEEDDYLHKDTGETS [M4G]
Reported endpoint: protein stability index
Test value: 4.86
--
Item sequence: LWKMKPRRNLEEDDYLDKDTGETS [H17D]
Reported endpoint: protein stability index
Test value: 4.94
--
Item sequence: LWKMKPRRNLEEDDYLHKDTGETT [S24T]
Reported endpoint: protein stability index
Test value: 4.6
--
Item sequence: LWKMKPRRNFEEDDYLHKDTGETS [L10F]
Reported endpoint: protein stability index
Test value: 4.24
--
Item sequence: LWKMVPRRNLEEDDYLHKDTGETS [K5V]
Reported endpoint: protein stability index
Test value: 3.94
--
Item sequence: LWKMKPRRNLEEDDYLHKFTGETS [D19F]
Reported endpoint: protein stability index
Test value: 3
--
Item sequence: LWKMKPRRNLEEDDYLHKDTGEVS [T23V]
Reported endpoint: protein stability index
Test value: 4.12
--
Item sequence: LWKMKPRRNLEEDDYLHKDTDETS [G21D]
Reported endpoint: protein stability index
Test value: 4.25
--
Item sequence: LWKMKPRRVLEEDDYLHKDTGETS [N9V]
Reported endpoint: protein stability index
Test value: 4.18
--
Item sequence: RWKMKPRRNLEEDDYLHKDTGETS [L1R]
Reported endpoint: protein stability index
Test value: 4.8
--
Item sequence: LWKMKPERNLEEDDYLHKDTGETS [R7E]
Reported endpoint: protein stability index
Test value: 4.47
--
Item sequence: LWKMKPRRNLEEDDYLQKDTGETS [H17Q]
Reported endpoint: protein stability index
Test value: 4.68
--
Item sequence: LWKMKPRRNLEEDDILHKDTGETS [Y15I]
Reported endpoint: protein stability index
Test value: 3.61
--
Item sequence: LWKMKPRRNKEEDDYLHKDTGETS [L10K]
Reported endpoint: protein stability index
Test value: 4.48
--
Item sequence: LWKMKPRRNLEEDDYLHWDTGETS [K18W]
Reported endpoint: protein stability index
Test value: 3.81
--
Item sequence: LWKMKPRRNLEERDYLHKDTGETS [D13R]
Reported endpoint: protein stability index
Test value: 4.15
--
Item sequence: LWKMKPRRNLCEDDYLHKDTGETS [E11C]
Reported endpoint: protein stability index
Test value: 3.79
--
Item sequence: LWKMKPRRNLIEDDYLHKDTGETS [E11I]
Reported endpoint: protein stability index
Test value: 3.82
--
Item sequence: LWKMKPRRNLEEDDYLHKDTGETN [S24N]
Reported endpoint: protein stability index
Test value: 4.72
--
Item sequence: LWKMKPRRNLEMDDYLHKDTGETS [E12M]
Reported endpoint: protein stability index
Test value: 3.63
--
Item sequence: LWKMKPRRNLEEDDYLHKVTGETS [D19V]
Reported endpoint: protein stability index
Test value: 3.43
--
Item sequence: LIKMKPRRNLEEDDYLHKDTGETS [W2I]
Reported endpoint: protein stability index
Test value: 5.05
--
Item sequence: LWKMKPRRNLEEDDYLHKYTGETS [D19Y]
Reported endpoint: protein stability index
Test value: 3.81
--
Item sequence: YWKMKPRRNLEEDDYLHKDTGETS [L1Y]
Reported endpoint: protein stability index
Test value: 4.26
--
Item sequence: LWKMKPRRNLEEDDYLHKDTGEGS [T23G]
Reported endpoint: protein stability index
Test value: 4.26
--
Item sequence: LWKMKPRRNLEEDDYLHSDTGETS [K18S]
Reported endpoint: protein stability index
Test value: 4.53
--
Item sequence: LWKMKPRRNLEEDDYLHKWTGETS [D19W]
Reported endpoint: protein stability index
Test value: 2.87
--
Item sequence: LWKMKYRRNLEEDDYLHKDTGETS [P6Y]
Reported endpoint: protein stability index
Test value: 3.96
--
Item sequence: LWKMKPRRNLEEDDYLSKDTGETS [H17S]
Reported endpoint: protein stability index
Test value: 4.54
--
Item sequence: LWKMAPRRNLEEDDYLHKDTGETS [K5A]
Reported endpoint: protein stability index
Test value: 3.93
--
Item sequence: LWKMKPRRNLEEDDYLHKDQGETS [T20Q]
Reported endpoint: protein stability index
Test value: 4.71
--
Item sequence: LWKMKPRRNLEEDLYLHKDTGETS [D14L]
Reported endpoint: protein stability index
Test value: 3.8
--
Item sequence: LWKMKPRLNLEEDDYLHKDTGETS [R8L]
Reported endpoint: protein stability index
Test value: 4.03
--
Item sequence: LWKMKPRRNLEEDDYLHCDTGETS [K18C]
Reported endpoint: protein stability index
Test value: 4.28
--
Item sequence: LWKMKPRRNLEEDDYLKKDTGETS [H17K]
Reported endpoint: protein stability index
Test value: 4.38
--
Item sequence: LWKMKPRRNLEEDDYLHLDTGETS [K18L]
Reported endpoint: protein stability index
Test value: 3.93
--
Item sequence: LWKMKPRRNEEEDDYLHKDTGETS [L10E]
Reported endpoint: protein stability index
Test value: 4.89
--
Item sequence: LWPMKPRRNLEEDDYLHKDTGETS [K3P]
Reported endpoint: protein stability index
Test value: 4.72
--
Item sequence: LWKMKPRRNLEPDDYLHKDTGETS [E12P]
Reported endpoint: protein stability index
Test value: 4.26
--
Item sequence: LWKMKPRRNLEEDDYWHKDTGETS [L16W]
Reported endpoint: protein stability index
Test value: 4.19
--
Item sequence: LWKMKPRRNLEEDDYLHKDTGETP [S24P]
Reported endpoint: protein stability index
Test value: 4.3
--
Item sequence: LWKMKPRRNLEEDDYLHKDTGEDS [T23D]
Reported endpoint: protein stability index
Test value: 4.59
--
Item sequence: LWKMKPRRNLEEDDYLHKDWGETS [T20W]
Reported endpoint: protein stability index
Test value: 3.85
--
Item sequence: LWKMKPRRNLEEDDYLHKDTGWTS [E22W]
Reported endpoint: protein stability index
Test value: 2.56

Each recorded value in this set is attributed to the supplement of paper PMC10567573.
